system: Melanin-concentrating hormone receptor 1 (Homo sapiens)
assay_notes: antagonism of human MCHR1 receptor – cell-based, fluorescence, counter-screen for GPR7 antagonist project (AID 2148);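 also: 0% = vehicle with agonist and 100% = vehicle without agonist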
cond: MCHR1-expressing cells, fluorescence antagonist assay; at 4.4 µM; hits give high values
About 1,500 (62%) of roughly 2,400 compounds were called active. So high a share suggests a set chosen from earlier hits. The list is a sample of the results.
Below, each entry is listed alongside its reported inhibition.

>  <compound>
Cn1c(=O)c([N+](=O)[O-])c(Oc2ccccc2)c2ccccc21

>  <inhibition / %>
30.5

$$$$
>  <compound>
O=[N+]([O-])/C=C/c1ccc2c(ccn2Cc2ccccc2)c1

>  <inhibition / %>
104

$$$$
>  <compound>
CCOc1ccc(Cn2nnc(C(=O)NCc3ccccc3)c2N)cc1

>  <inhibition / %>
51.5

$$$$
>  <compound>
O=C(COc1ccccc1)NCc1ccc2c(c1)OCO2

>  <inhibition / %>
1.89

$$$$
>  <compound>
COc1ccccc1CNC(=O)COc1ccc(C)nc1[N+](=O)[O-]

>  <inhibition / %>
-4

$$$$
>  <compound>
Cc1ccc2nc(C)c3c(c2c1)N(c1ccccc1)CC3

>  <inhibition / %>
22.2

$$$$
>  <compound>
CCOC(=O)C1CSC(CC(=O)Nc2ccc(OCC)cc2)C(=O)N1 (configuration not stated)

>  <inhibition / %>
3.62

$$$$
>  <compound>
C=CCNC(=O)COC(=O)c1ccccc1C(=O)N(C)C1CCCCC1

>  <inhibition / %>
-2.95

$$$$
>  <compound>
CCCCCCCCCCOC(=O)Cn1c(COc2cccc(OC)c2)[n+](C)c2ccccc21

>  <inhibition / %>
81.7

$$$$
>  <compound>
O=C(CSCc1ccc([N+](=O)[O-])cc1)NCCSCc1ccccc1

>  <inhibition / %>
28.9

$$$$
>  <compound>
O=C(CCc1ccccc1)Nc1ccc(NC(=O)C2CC2)nc1

>  <inhibition / %>
4.99

$$$$
>  <compound>
O=[N+]([O-])c1ccc(N(CCO)Cc2ccccc2)c([N+](=O)[O-])c1

>  <inhibition / %>
15.3

$$$$
>  <compound>
COCCN(Cc1cc2cc3c(cc2nc1Cl)OCO3)C(=O)c1cccc(C)c1

>  <inhibition / %>
37.5

$$$$
>  <compound>
Cc1ccc(NC(=O)CN2CCC3(O)CCCCC3C2c2ccc3c(c2)OCO3)c(C)c1 (configuration not stated)

>  <inhibition / %>
24.9

$$$$
>  <compound>
c1ccc(C2CNCc3c2ccc2ccccc32)cc1 (configuration not stated)

>  <inhibition / %>
73.3

$$$$
>  <compound>
Cc1ccc(NC(=S)N(CCCN2CCC(C)CC2)Cc2ccco2)cc1

>  <inhibition / %>
-1.82

$$$$
>  <compound>
COc1ccccc1N1CCN(c2ncnc3sc(C)c(-c4ccccc4)c23)CC1

>  <inhibition / %>
56.4

$$$$
>  <compound>
COc1ccccc1N(C(=O)Cn1nnc2ccccc21)C(C(=O)NCc1ccco1)c1ccc(C)o1 (configuration not stated)

>  <inhibition / %>
25.9

$$$$
>  <compound>
Cc1cc(OCc2ccc(C(=O)Nc3ccc(C(=O)O)cc3)o2)ccc1Cl

>  <inhibition / %>
22

$$$$
>  <compound>
C=CCC1(CC=C)CCCN1C(=O)c1cc(COc2ccc(-n3cncn3)cc2)on1

>  <inhibition / %>
55.2

$$$$
>  <compound>
COc1ccc(CS(=O)/C(Cl)=C(/Cl)C(=O)Nc2ccc(OC)nc2)cc1 (configuration not stated)

>  <inhibition / %>
63.9

$$$$
>  <compound>
COc1ccc(C(CCNCc2ccccc2F)c2ccc(F)cc2)cc1 (configuration not stated)

>  <inhibition / %>
42.1

$$$$
